Value source: patent US11274097B2

Each entry below carries its recorded LOGP_NEUTRAL.
experimental_protocol: log P by HPLC on a reversed-phase column (C 18), EEC Directive 79/831 Annex V.A8
Type: physicochemical
conditions: neutral range, pH 7.8, 0.001 molar aqueous ammonium hydrogencarbonate/acetonitrile; 55° C.
readout_kind: LOGP_NEUTRAL

| molecule | number |
| --- | --- |
| CCS(=O)(=O)c1ccc(NC(C)=O)nc1-c1nc2cc(C(F)(F)F)ncc2n1C [Example I-49] | 1.99 |
| FC(F)(F)c1cc2nc(-c3ccccc3SC3COC3)oc2cn1 [Example I-40] | 3.10 |
| Cn1c(-c2ncc(C(F)(F)F)cc2S(=O)(=O)CCF)nc2cc(C(F)(F)F)ncc21 [Example I-57] | 2.82 |
| CCS(=O)(=O)c1cc(C(F)(F)F)cnc1-c1nc2cc(-n3ccc(C(F)(F)F)n3)ncc2n1C [Example I-77] | 3.81 |
| CCSc1ccccc1-c1nc2cc(C(F)(F)F)ncc2o1 [Example I-35] | 4.07 |
| Cn1c(-c2ncc(C(F)(F)F)cc2S(C)(=O)=O)nc2cc(C(F)(F)F)ncc21 [Example I-36] | 2.64 |
| Cn1c(-c2ccccc2S(=O)(=O)C2COC2)nc2cc(C(F)(F)F)ncc21 [Example I-27] | 1.84 |

====

experimental_protocol: log P by HPLC on a reversed-phase column (C 18), EEC Directive 79/831 Annex V.A8
Assay type: physicochemical
conditions: reversed-phase HPLC column (C 18); neutral range, pH 7.8; read-out: log P (neutral)
1.0 if chromatographic logP is below 3. 0.0 if not; exact matches included in 0.0.

| molecule | assigned_category |
| --- | --- |
| CCSc1ccccc1C(=O)Nc1cc(C(F)(F)F)ncc1O [VIII-02] | 1.0 |
| CCSc1cc(C(F)(F)F)cnc1-c1nc2cc(-n3cnc(C(F)(F)F)c3)ncc2n1C [Example I-74] | 0.0 |
| Cn1c(-c2ncc(C(F)(F)F)cc2S(C)(=O)=O)nc2cc(C(F)(F)F)ncc21 [Example I-36] | 1.0 |
| CCSc1cc(C(F)(F)F)cnc1-c1nc2cc(-c3ccc(C(F)(F)F)cc3)ncc2n1C [Example I-64] | 0.0 |
| CCSc1ccccc1-c1nc2cc(C(F)(F)F)ncc2o1 [Example I-35] | 0.0 |
| CSc1cc(C(F)(F)F)cnc1-c1nc2cc(C(F)(F)F)ncc2n1C [Example I-3] | 0.0 |
| Cn1c(-c2ncc(C(F)(F)F)cc2[S+](C)[O-])nc2cc(C(F)(F)F)ncc21 (stereo not drawn) [Example I-26] | 1.0 |

====

experimental_protocol: log P by HPLC on a reversed-phase column (C 18), EEC Directive 79/831 Annex V.A8
Format: physicochemical
conditions: acidic range, pH 2.7, 0.1% aqueous formic acid/acetonitrile; 55° C.
Each entry below carries its recorded LOGP_HCOOH.

| compound | LOGP_HCOOH |
| --- | --- |
| CC[S+]([O-])c1ccc(Cl)cc1-c1nc2cc(C(F)(F)F)ncc2n1C (stereo not shown) [Example I-13] | 2.44 |
| CCSc1ccc(NC(C)=O)nc1-c1nc2cc(C(F)(F)F)ncc2n1C [Example I-50] | 2.39 |
| Cn1c(-c2ccc(Cl)cc2[S+](C)[O-])nc2cc(C(F)(F)F)ncc21 (stereo not shown) [Example I-10] | 2.15 |
| CCCS(=O)(=O)c1ccc(OC)nc1-c1nc2cc(C(F)(F)F)ncc2n1C [Example I-71] | 2.93 |
